Items are presented alongside their recorded melting point.

{"MOLECULE": "COC(=O)Cc1c(C(=O)OC)ccn1CCO", "melting point": "52 to 54 °C"}
{"MOLECULE": "COc1cccc(-n2c(-c3sc(Nc4ccccc4)nc3C)nc3ccccc3c2=O)c1", "melting point": "> 275 °C"}
{"MOLECULE": "CC(C)(C)c1cc(N=Nc2cc(Cl)ccc2Cl)c(O)c(C(C)(C)C)c1", "melting point": "121 to 126 °C"}
{"MOLECULE": "CCCCCCN1Cc2cc3ccccc3n2Cc2ccccc21", "melting point": "45 °C"}
{"MOLECULE": "O=C(O)c1cccc(C(=O)Nc2cccc3cc(Br)cnc23)c1", "melting point": "275 to 277 °C"}
{"MOLECULE": "CCCN(CCC)c1nc2c(N3CCSCC3)nccc2c(=O)[nH]1", "melting point": "226 °C"}
{"MOLECULE": "C=Cc1cc(CCNc2ncnc3c(F)ccc(F)c23)ccc1Oc1cc(C(F)(F)F)ccn1", "melting point": "86 °C"}
{"MOLECULE": "COc1cc(NC(C)CCCN2C(=O)c3ccccc3C2=O)c2nccc(C=Cc3cccc(C(F)(F)F)c3)c2c1 (centres undefined)", "melting point": "154 to 156 °C"}

[ask] Name the recorded melting point of the molecule listed here: CN(C)CCCN(C=O)C1CCC2C3CCc4ccccc4C3CCC21C (centres undefined)
[reply] 123 to 125 °C

[ask] Name the recorded melting point of the molecule listed here: Cc1nc2c(NCc3c(C)cccc3C)cc(C(=O)N(C)C)cc2[nH]1
[reply] 203 °C

[ask] Name the recorded melting point of the molecule listed here: O=C(O)C1C=Nc2c(cc(F)cc2[N+](=O)[O-])C1=O (centres undefined)
[reply] 254 to 256 °C

[ask] Name the recorded melting point of the molecule listed here: CC(C)(Cc1c[nH]c2ccccc12)NCC(O)COc1ccccc1Cl (centres undefined)
[reply] 150 to 154 °C

[ask] Name the recorded melting point of the molecule listed here: CCCCCCCCCCCCCCCCOC(=O)CCCCCCCCCCCCCCC
[reply] 75 °C

[ask] Name the recorded melting point of the molecule listed here: COc1ccc(C(=O)c2cn(C)c3ccc([N+](=O)[O-])cc23)cc1
[reply] 229 °C

[ask] Name the recorded melting point of the molecule listed here: OC1(Cc2ccccc2)CCN(CCC(c2ccccc2)(c2ccccc2)c2ccccc2)CC1
[reply] 72 to 74 °C

[ask] Name the recorded melting point of the molecule listed here: C[Si](C)(C)C/C=C/[C@@H](Cc1ccccc1)C(=O)N1C(=O)OC[C@H]1Cc1ccccc1
[reply] 132 to 135 °C

[ask] Name the recorded melting point of the molecule listed here: Cn1ncnc1COc1nn2c(-c3ccccc3F)nnc2cc1-c1cccs1
[reply] 189 to 190 °C

[ask] Name the recorded melting point of the molecule listed here: CCOC(=O)c1cnc2cccc(O)c2c1
[reply] 240 °C

[ask] Name the recorded melting point of the molecule listed here: CC(C)CC(=O)Nc1cccc(-c2ccnc3c(-c4cccc(CN(C)C)c4)cnn23)c1
[reply] 179 to 182 °C

[ask] Name the recorded melting point of the molecule listed here: COc1c(N2CC[C@@H](C3(NC(=O)OC(C)(C)C)CCC3)C2)ccc2c(=O)c(C(=O)O)cn([C@@H]3C[C@@H]3F)c12
[reply] 174 °C

[ask] Name the recorded melting point of the molecule listed here: Cc1cc(C(=O)Nc2ccc3cc(CN4CCCC4)cnc3c2C)ccc1-c1ccc(F)cc1
[reply] 200 to 202 °C

[ask] Name the recorded melting point of the molecule listed here: CCOC(=O)c1cc(-c2csc(N)n2)[nH]n1
[reply] 205 to 207 °C

[ask] Name the recorded melting point of the molecule listed here: Fc1ccc(-c2ccn(C3CCNCC3)c2-c2ccncc2)cc1
[reply] 191 to 192 °C

[ask] Name the recorded melting point of the molecule listed here: CN1CCN(C(=O)c2cc3ccccc3c(=O)[nH]2)CC1
[reply] 170 to 172 °C

[ask] Name the recorded melting point of the molecule listed here: COCCCc1cc(N(C)Cc2ccc(-c3ccc(C(F)(F)F)cc3)nc2)ccc1OCC(=O)O
[reply] 72 to 76 °C

[ask] Name the recorded melting point of the molecule listed here: CCCNC(=O)CCc1ccc2c(c1)c(Cc1ccc(C(=O)O)cc1OC)cn2CCC
[reply] 68 to 78 °C

[ask] Name the recorded melting point of the molecule listed here: O=[N+]([O-])c1ccc2c(c1)CCNCC2
[reply] 53 to 56 °C

[ask] Name the recorded melting point of the molecule listed here: CC(C)CC(=O)Nc1ccc2oc3c(c2c1)CCCCCC3
[reply] 154 to 155 °C

[ask] Name the recorded melting point of the molecule listed here: CN1CCC(OC(=O)N2c3ccccc3NC(=O)c3ccccc32)CC1
[reply] 203 to 204 °C

Origin of measurements: a melting point compilation (Tetko et al.; mined from patent text by program, amines drawn as free bases though some values may be those of a salt)
